The following compounds are listed with their measured pKi values.
# systemName: D(2) dopamine receptor (Homo sapiens)
# assayProtocol: Displacement of [3H]quinpirole from human dopamine D2A receptors expressed in LtK cells
# Type: cell-based
pKi: −log10 of the molar value.

[
  {
    "molSmiles": "CCCN(Cc1ccc(OC)cc1)[C@@H]1CCc2c(cccc2OC)C1",
    "ltGtEq": "=",
    "pKi": 7.19
  },
  {
    "molSmiles": "CCCN(Cc1ccc(F)cc1)[C@@H]1CCc2c(cccc2OC)C1",
    "ltGtEq": "=",
    "pKi": 7.16
  },
  {
    "molSmiles": "CCCN(Cc1ccccc1)[C@@H]1CCc2c(cccc2OC)C1",
    "ltGtEq": "=",
    "pKi": 7.12
  },
  {
    "molSmiles": "CCCN[C@@H]1CCc2c(cccc2OC)C1",
    "ltGtEq": "=",
    "pKi": 7.08
  },
  {
    "molSmiles": "COc1cccc2c1CC[C@@H](N(Cc1ccccc1)Cc1ccccc1)C2",
    "ltGtEq": "<",
    "pKi": 5.30
  },
  {
    "molSmiles": "CCCN(Cc1ccc([N+](=O)[O-])cc1)[C@@H]1CCc2c(cccc2OC)C1",
    "ltGtEq": "=",
    "pKi": 6.67
  },
  {
    "molSmiles": "CCCN(Cc1cccs1)[C@@H]1CCc2c(cccc2OC)C1",
    "ltGtEq": "=",
    "pKi": 6.47
  },
  {
    "molSmiles": "CCCN(Cc1ccco1)[C@@H]1CCc2c(cccc2OC)C1",
    "ltGtEq": "=",
    "pKi": 6.93
  },
  {
    "molSmiles": "COc1cccc2c1CC[C@@H](NCc1ccccc1)C2",
    "ltGtEq": "=",
    "pKi": 5.88
  },
  {
    "molSmiles": "CCCN(CCC)[C@@H]1CCc2c(cccc2OC)C1",
    "ltGtEq": "=",
    "pKi": 8.20
  }
]

* * *

# systemName: D(2) dopamine receptor (Homo sapiens, UniProt P14416)
# Sequence (P14416 whole entry): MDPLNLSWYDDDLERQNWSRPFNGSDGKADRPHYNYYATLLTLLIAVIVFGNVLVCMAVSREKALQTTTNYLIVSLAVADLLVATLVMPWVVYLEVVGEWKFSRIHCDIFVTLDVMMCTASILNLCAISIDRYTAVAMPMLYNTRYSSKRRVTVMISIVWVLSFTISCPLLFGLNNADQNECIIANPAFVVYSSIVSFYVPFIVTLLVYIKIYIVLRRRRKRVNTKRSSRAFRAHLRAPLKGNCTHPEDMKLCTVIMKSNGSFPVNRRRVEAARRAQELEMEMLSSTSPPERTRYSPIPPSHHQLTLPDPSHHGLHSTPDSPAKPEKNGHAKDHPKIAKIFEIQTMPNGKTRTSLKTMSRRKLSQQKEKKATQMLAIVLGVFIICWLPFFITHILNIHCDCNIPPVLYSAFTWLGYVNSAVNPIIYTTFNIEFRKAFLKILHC
# assayProtocol: Displacement of [3H]raclopride from human dopamine D2A receptors expressed in LtK cells
# Assay type: cell-based
pKi: −log10 of the molar value.

[
  {
    "molSmiles": "CCCN(CCC)[C@@H]1CCc2c(cccc2OC)C1",
    "ltGtEq": "=",
    "pKi": 7.34
  },
  {
    "molSmiles": "COc1cccc2c1CC[C@@H](NCc1ccccc1)C2",
    "ltGtEq": "=",
    "pKi": 6.00
  },
  {
    "molSmiles": "CCCN(Cc1ccccc1)[C@@H]1CCc2c(cccc2OC)C1",
    "ltGtEq": "=",
    "pKi": 7.18
  },
  {
    "molSmiles": "CCCN[C@@H]1CCc2c(cccc2OC)C1",
    "ltGtEq": "=",
    "pKi": 6.94
  },
  {
    "molSmiles": "CCCN(Cc1ccco1)[C@@H]1CCc2c(cccc2OC)C1",
    "ltGtEq": "=",
    "pKi": 6.90
  },
  {
    "molSmiles": "CCCN(Cc1ccc(OC)cc1)[C@@H]1CCc2c(cccc2OC)C1",
    "ltGtEq": "=",
    "pKi": 7.66
  },
  {
    "molSmiles": "CCCN(Cc1cccs1)[C@@H]1CCc2c(cccc2OC)C1",
    "ltGtEq": "=",
    "pKi": 6.82
  },
  {
    "molSmiles": "COc1cccc2c1CC[C@@H](N(Cc1ccccc1)Cc1ccccc1)C2",
    "ltGtEq": "<",
    "pKi": 5.30
  },
  {
    "molSmiles": "CCCN(Cc1ccc(F)cc1)[C@@H]1CCc2c(cccc2OC)C1",
    "ltGtEq": "=",
    "pKi": 7.36
  },
  {
    "molSmiles": "CCCN(Cc1ccc([N+](=O)[O-])cc1)[C@@H]1CCc2c(cccc2OC)C1",
    "ltGtEq": "=",
    "pKi": 7.23
  }
]
